# assayed_system: Cathepsin S (UniProt P25774)
# assay_name: Cathepsin enzyme inhibition assay (fluorogenic peptide substrate Z-Val-Val-Arg-AMC), Cathepsin S
# Type: biochemical, human and mouse
# condition_description: enzyme 1 nM, substrate 20 μM, pH 6.5; read-out: CatS IC50
Counter-ions that a name gives are not always drawn.
assay_readout: IC50 (nM)
Quick note: give the figure in nM, leave out the unit.

Item CCN1CCN(c2ccc(S(=O)(=O)[C@@H]3C[C@@H](C(=O)NC4(C#N)CC4)N(c4ncccc4C(F)(F)F)C3)c(Cl)c2)CC1 [Example 190] was tested on Cathepsin S (UniProt P25774); the reported IC50 is 1.5

So the reported IC50 for N#CC1(NC(=O)[C@@H]2C[C@@H](S(=O)(=O)c3ccccc3Cl)CN2C(=O)C2(c3ccc(Cl)cc3Cl)CC2)CC1 [Example 443] , on Cathepsin S (UniProt P25774), turned out to be 0.605

Tested on Cathepsin S (UniProt P25774): N#CC1(NC(=O)[C@@H]2C[C@@H](S(=O)(=O)c3ccc(N4CCOCC4=O)cc3C(F)(F)F)CN2)CC1 [Example 30, hydrochloride] . Observed IC50: 3

Record N#CC1(NC(=O)[C@@H]2C[C@@H](S(=O)(=O)c3ccc(-n4ccnc4)cc3Cl)CN2C(=O)C2(c3ccc(Cl)nc3)CC2)CC1 [Example 382] ; system Cathepsin S (UniProt P25774); IC50 = 0.04

Item: N#CC1(NC(=O)[C@@H]2C[C@@H](S(=O)(=O)c3ccccc3C(F)(F)F)CN2c2nc(Cl)ns2)CC1 [Example 405] | System: Cathepsin S (UniProt P25774) | IC50: 0.935
